Quick list: RAT MICROSOMAL STABILITY (% REMAINING AFTER 30 MINUTES) per entry.
EXPERIMENTAL DETAILS: In vitro rat microsomal stability assay
Assay type: in vitro ADME, rat (Sprague-Dawley)
ASSAY SETUP: Sprague-Dawley, rat, microsomes, 0.5 h, 0.5 μM, pH 7.4
Report as a plain number; the unit % is understood.

Ask: Fill in the blank: the reported RAT MICROSOMAL STABILITY (% REMAINING AFTER 30 MINUTES) of CC(c1cccc(C(F)(F)F)c1)C1(C(O)c2ccccn2)CCC1 (stereo not shown) is ____.
Result: 0.21

Ask: How about CC1(O)CC(c2ccc(OC(F)(F)F)cc2)(C(O)c2ccccn2)C1 (single isomer, unassigned) [Example 203] ?
Result: 74

====

Quick list: HUMAN MICROSOMAL STABILITY (% REMAINING AFTER 30 MINUTES) per entry.
EXPERIMENTAL DETAILS: In vitro human microsomal stability assay
Assay type: in vitro ADME
ASSAY SETUP: human, microsomes, 0.5 h, 0.5 μM, pH 7.4
Report as a plain number; the unit % is understood.

Here are 5 compounds together with their reported answers.
Ask: Fill in the blank: the reported HUMAN MICROSOMAL STABILITY (% REMAINING AFTER 30 MINUTES) of OC(c1ccccn1)C1(C2=CCCC(C(F)(F)F)C2)CCC1 (centres unmarked) [Example 261] is ____.
Result: 0.01

Ask: How about O=C1CC(c2cccc(OC(F)(F)F)c2)([C@H](O)c2ccccn2)C1 (single isomer, unassigned) [Example 256] ?
Result: 44

Ask: How about OC(c1ccccn1)C1(c2ccc(Cl)c(Cl)c2)CCOCC1 (centres unmarked) [Example 59] ?
Result: 45

Ask: How about O[C@H](c1ccccn1)[C@]1(c2cccc(C(F)(F)F)c2)C[C@@H](O)C1 [Example 264] ?
Result: 56

Ask: How about OC(c1ccccn1)C1(c2cccc(OC(F)(F)F)c2)CCCO1 (single isomer, unassigned) [Example 92] ?
Result: 2.7

We next turn to a different compound, shown below.
Ask: Fill in the blank: the reported HUMAN MICROSOMAL STABILITY (% REMAINING AFTER 30 MINUTES) of OC(c1ccccn1)C1(c2ccc(F)cc2)CCC1 (centres unmarked) [Example 3] is ____.
Result: 28

====

SYSTEM TESTED: human TRPV3 (Homo sapiens, UniProt Q8NET8)
Construct: expressed in transfected cells
Sequence (Q8NET8 whole entry): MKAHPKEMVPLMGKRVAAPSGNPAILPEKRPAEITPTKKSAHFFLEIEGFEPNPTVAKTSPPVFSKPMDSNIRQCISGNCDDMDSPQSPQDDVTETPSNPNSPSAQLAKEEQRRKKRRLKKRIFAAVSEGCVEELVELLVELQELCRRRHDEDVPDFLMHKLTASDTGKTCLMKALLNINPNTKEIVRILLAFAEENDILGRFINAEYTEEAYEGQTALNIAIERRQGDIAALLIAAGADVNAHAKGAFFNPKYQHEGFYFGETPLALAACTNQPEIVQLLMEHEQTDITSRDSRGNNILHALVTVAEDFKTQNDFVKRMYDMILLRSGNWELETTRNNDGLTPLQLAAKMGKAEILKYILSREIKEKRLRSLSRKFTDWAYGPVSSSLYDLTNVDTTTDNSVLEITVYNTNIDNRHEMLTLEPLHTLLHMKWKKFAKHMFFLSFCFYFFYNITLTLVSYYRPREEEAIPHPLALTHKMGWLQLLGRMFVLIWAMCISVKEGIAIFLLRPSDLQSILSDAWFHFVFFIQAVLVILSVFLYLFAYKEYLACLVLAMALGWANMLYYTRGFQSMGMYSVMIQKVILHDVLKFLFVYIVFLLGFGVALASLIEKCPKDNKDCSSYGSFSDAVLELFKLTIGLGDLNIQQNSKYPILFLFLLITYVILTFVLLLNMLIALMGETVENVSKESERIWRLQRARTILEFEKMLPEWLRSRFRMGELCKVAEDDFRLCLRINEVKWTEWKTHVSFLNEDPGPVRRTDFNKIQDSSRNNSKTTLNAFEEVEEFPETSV
EXPERIMENTAL DETAILS: In vitro antagonism of recombinant human TRPV3 activation (FLIPR Tetra calcium assay)
Type: cell-based
ASSAY SETUP: HEK293 cells stably expressing human TRPV3; agonist 2-APB at 80 μM; actual measured value shown parenthetically; in most cases average of at least two runs; read-out: IC50
Quick list: pIC50 per entry.
Recall that pIC50 is obtained by taking minus log10 of the concentration measured in molar.

Here are 6 compounds together with their reported answers.
Ask: Fill in the blank: the reported pIC50 of OC(c1ccccn1)C1(c2ccc(OC(F)(F)F)cc2)CCC1 (centres unmarked) is ____.
Result: 6.38

Ask: How about OC1CC(c2ccc(OC(F)(F)F)cc2)(C(O)c2ccccn2)C1 (single isomer, unassigned) [Example 132] ?
Result: 5.03

Ask: How about CC1(O)CC(c2cc(C(F)(F)F)ccn2)(C(O)c2ccccn2)C1 (centres unmarked) ?
Result: 5.83

Ask: How about OC(c1ccccn1)C1(c2cccc(Cl)c2)CCCO1 (single isomer, unassigned) [Example 105] ?
Result: 5.12

Ask: How about OC(c1ccccn1)C1(c2nc3ccc(Cl)cc3s2)CCC1 (centres unmarked) ?
Result: 6.25

Ask: How about OC(c1ccccn1)C1(c2ccc(Cl)c(Cl)c2)CCCO1 (single isomer, unassigned) [Example 99] ?
Result: 5.91

New cases:
Ask: Fill in the blank: the reported pIC50 of O[C@@H](c1ncccn1)C1(c2ccc(Cl)c(Cl)c2)CCC1 is ____.
Result: 4.88

Ask: How about OC(c1ccccn1)C1(c2ccccc2OC(F)(F)F)CCCO1 (single isomer, unassigned) [Example 96] ?
Result: 5.91

====

EXPERIMENTAL DETAILS: In vitro human microsomal stability assay
Type: in vitro ADME
ASSAY SETUP: human, microsomes, 0.5 h, 0.5 μM, pH 7.4
// class 0 strictly below 5% in HUMAN MICROSOMAL STABILITY (% REMAINING AFTER 30 MINUTES); class 1 otherwise

Ask: Hi team, for OC(c1ccccn1)C1(c2ccc(F)c(C(F)(F)F)c2)CC(F)(F)C1 (stereo not drawn) [Example 139] , is the recorded HUMAN MICROSOMAL STABILITY (% REMAINING AFTER 30 MINUTES) at or above 5%?
Result: class 1

Ask: How about OC(c1ccccn1)C1(C(c2ccccc2)C(F)(F)F)CCC1 (stereo not drawn) [Example 58] ?
Result: class 1

Ask: How about O[C@@H](c1ccccn1)C1(c2cc(C(F)(F)F)ccn2)CC(F)(F)C1 [Example 125] ?
Result: class 1

Ask: How about OC(c1ccccn1)C1(c2cccc(C(F)(F)F)c2)CCCO1 (single isomer, unassigned) [Example 107] ?
Result: class 1

Ask: How about OC(c1ccccn1)C1(c2cccc(OC(F)(F)F)c2)CC2(C1)OCCO2 (stereo not drawn) [Example 235] ?
Result: class 1

New cases:
Ask: Hi team, for OC(c1ccccn1)C1(c2ccnc(C(F)(F)F)c2)CC2(C1)OCCO2 (stereo not drawn) [Example 297] , is the recorded HUMAN MICROSOMAL STABILITY (% REMAINING AFTER 30 MINUTES) at or above 5%?
Result: class 1

Ask: How about O[C@H](c1ccccn1)C1(c2ccc(C(F)(F)F)c(F)c2)CCC1 [Example 29] ?
Result: class 1

Ask: How about OC(c1ccccn1)C1(c2cccc(Cl)c2)CCCO1 (single isomer, unassigned) [Example 104] ?
Result: class 1

Ask: How about N[C@@H]1CCC[C@H]1[C@@H](O)C1(c2ccc(Cl)c(Cl)c2)CCC1 [Example 220] ?
Result: class 1

Ask: How about OC(C1CCCc2cccnc21)C1(c2cccc(OC(F)(F)F)c2)CCC1 (stereo not drawn) [Example 188] ?
Result: class 0

Ask: How about COC1CC(c2ccc(Cl)c(Cl)c2)([C@H](O)c2ccccn2)C1 (mixture of isomers) [Example 151] ?
Result: class 1

Ask: How about OC(c1ccccn1)C1(c2ccccc2OC(F)(F)F)CCC1 (stereo not drawn) [Example 10] ?
Result: class 0

Ask: How about OC(c1ccccn1)C1(c2cccc(Oc3ccccc3)c2)CCC1 (stereo not drawn) [Example 23] ?
Result: class 0

Ask: How about C[C@]1(O)C[C@@](c2ccc(OC(F)(F)F)cc2)([C@@H](O)c2ccccn2)C1 [Example 250] ?
Result: class 1

Ask: How about OC(c1ccccn1)C1(c2ccc(OC(F)(F)F)cc2)CCCO1 (single isomer, unassigned) [Example 95] ?
Result: class 1

Ask: How about OC(C1CCc2cccnc21)C1(c2cccc(OC(F)(F)F)c2)CCC1 (stereo not drawn) [Example 190] ?
Result: class 0

Ask: How about OC(c1ccccn1)C1(C2CCCC2)CCC1 (stereo not drawn) [Example 163] ?
Result: class 0

Ask: How about OC(c1ccccn1)C1(c2cccc(OC(F)(F)F)c2)CC(F)(F)C1 (stereo not drawn) [Example 114] ?
Result: class 1

====

EXPERIMENTAL DETAILS: In vitro human microsomal stability assay
Format: in vitro ADME
ASSAY SETUP: human, microsomes, 0.5 h, 0.5 μM, pH 7.4
// Condition not met strictly below 20% in HUMAN MICROSOMAL STABILITY (% REMAINING AFTER 30 MINUTES); Condition met otherwise

Some entries whose results are on file:
Ask: Hi team, for CC1(O)CC(c2ccc(OC(F)(F)F)cc2)(C(O)c2ncccn2)C1 (centres unmarked) [Example 310] , is the recorded HUMAN MICROSOMAL STABILITY (% REMAINING AFTER 30 MINUTES) at or above 20%?
Result: Condition met

Ask: How about OC(C1CCc2cccnc21)C1(c2ccccc2C(F)(F)F)CCC1 (centres unmarked) [Example 197] ?
Result: Condition not met

Ask: How about OC(C1CCc2cccnc21)C1(c2ccccc2OC(F)(F)F)CCC1 (centres unmarked) [Example 194] ?
Result: Condition not met

Ask: How about OC(c1ccccn1)C1(c2ccc(C(F)(F)F)cc2)CCNCC1 (centres unmarked) [Example 147] ?
Result: Condition met

Ask: How about OC(c1ccccn1)C1(c2cccc(Cl)c2)CCCO1 (single isomer, unassigned) [Example 105] ?
Result: Condition met

New cases:
Ask: Hi team, for OC(c1ccccn1)C1(c2ccc(C(F)(F)F)nc2)CCC1 (centres unmarked) [Example 85] , is the recorded HUMAN MICROSOMAL STABILITY (% REMAINING AFTER 30 MINUTES) at or above 20%?
Result: Condition met

Ask: How about O[C@H](c1ccccn1)[C@@]1(c2ccc(Cl)c(Cl)c2)CCO1 [Example 135] ?
Result: Condition met

Ask: How about OC1CC(c2ccc(Cl)c(Cl)c2)(C(O)c2ncccn2)C1 (single isomer, unassigned) [Example 313] ?
Result: Condition met

Ask: How about O[C@H](c1ccccn1)C1(c2cc(C(F)(F)F)ccn2)CC(F)(F)C1 [Example 126] ?
Result: Condition met

Ask: How about COc1ccc(C(O)C2(c3ccc(Cl)c(Cl)c3)CCC2)nc1 (centres unmarked) [Example 287] ?
Result: Condition not met

Ask: How about OC(C1CCc2cccnc21)C1(c2ccccc2C(F)(F)F)CCC1 (centres unmarked) [Example 198] ?
Result: Condition not met

Ask: How about OC(c1ccccn1)C1(c2cccc(OC(F)(F)F)c2)CCOCC1 (centres unmarked) [Example 66] ?
Result: Condition met

Ask: How about ON=C1CC(c2ccc(OC(F)(F)F)cc2)([C@H](O)c2ccccn2)C1 (some centres unmarked) [Example 248] ?
Result: Condition met

Ask: How about O[C@H](c1ccccn1)C1(c2cccc(C(F)(F)F)n2)CCC1 [Example 238] ?
Result: Condition not met
